test: chemical genetic growth profiling, strain panel (AID 1159580);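 further: tested at 20 µM; growth read once vehicle control cultures reached saturation at 30 °C; 1 = growth at the plate median or of vehicle wells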; settings: S. cerevisiae deletion strains, growth OD, locus YKL009W, strain mrt4, hits give low values
Screen size: about 5,500 compounds; about 2,000 (36%) were called active. Not shown: some 18% with an inconclusive outcome. This is one part of the list.
Could you please report measured normalized growth for the items listed next?
Field format: numeric only.

**Q:** Item COC(=O)C[C@H]1C(C)(C)C2(O)OC34CC2C(=O)[C@]1(C)C3CC[C@]1(C)C4=CC(=O)O[C@H]1c1ccoc1 (stereo partly specified) : provide normalized growth
**A:** 1.03

**Q:** Supply recorded normalized growth for O=c1cc(CO)occ1O here.
**A:** 1.03

**Q:** Consider the molecule CC(C)=CCCC1(C)C=Cc2c(O)c3c(c(CC=C(C)C)c2O1)OC12C(=CC4CC1C(C)(C)OC2(C/C=C(/C)C(=O)O)C4O)C3=O (stereo unspecified) . State its measured normalized growth.
**A:** 0.953

**Q:** Supply measured normalized growth of COc1ccc2c(c1)c(CC(=O)O)c(C)n2C(=O)c1ccc(Cl)cc1 in your reply.
**A:** 0.998

**Q:** Please report normalized growth for the following molecule: Nc1ccc(S(=O)(=O)Nc2cnc3ccccc3n2)cc1
**A:** 0.971

**Q:** Assign normalized growth to the following record: CO[C@@]12[C@@H]3NC3CN1C1=C(C(=O)C(N)=C(C)C1=O)[C@@H]2COC(N)=O (stereo partly specified)
**A:** 0.964

###

experiment: chemical genetic growth profiling, strain panel (AID 1159580);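 further: tested at 20 µM; growth read once vehicle control cultures reached saturation at 30 °C; 1 = growth at the plate median or of vehicle wells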; conditions: S. cerevisiae deletion strains, growth OD, locus YPL051W, strain arl3, hits give low values
Among all 5,500 compounds or so, about 2,000 (36%) were called active. Inconclusive results (about 18%) are left out. Some of the results follow.
Lab note: cut-off is 1. Strictly less in normalized growth is TRUE. Exactly 1 or more is FALSE.

**Q:** For this compound, is normalized growth lower than 1? CCOc1ccc2nc3cc(N)ccc3c(N)c2c1
**A:** TRUE

**Q:** Input COC(=O)C[C@H]1C(C)(C)C(=O)[C@@H]2CC3C4=CC(=O)O[C@@H](c5ccoc5)[C@]4(C)CCC3[C@@]1(C)C2=O (some centres undefined) ; condition: normalized growth strictly below 1. Does it hold?
**A:** FALSE

**Q:** Does the reported normalized growth of Nc1c2c(nc3ccccc13)CCCC2 stay below 1?
**A:** TRUE

**Q:** Is the reported normalized growth for Nc1c2ccccc2nc2ccccc12 (tested in a mixture with another compound) strictly below 1?
**A:** TRUE

**Q:** Dear colleague, could you confirm whether normalized growth of Nc1c2ccccc2nc2ccccc12 falls below 1? Thanks.
**A:** TRUE

**Q:** Is it true that normalized growth reported for Cc1cc(C(C)(C)C)c(O)c(C(C)(C)C)c1 is less than 1?
**A:** TRUE

**Q:** # TODO verify normalized growth < 1 strictly for this compound: CCC(C)C(NC)C(=O)O (centres undefined)
**A:** FALSE

###

Could you please report measured normalized growth for the items listed next?
test: chemical genetic growth profiling, strain panel (AID 1159580);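 further: tested at 20 µM; growth read once vehicle control cultures reached saturation at 30 °C; 1 = growth at the plate median or of vehicle wells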; settings: S. cerevisiae deletion strains, growth OD, locus YNL307C, strain MCK1, hits give low values
In all, about 5,500 compounds went through this assay and about 2,000 (36%) were called active. Roughly 18% stayed inconclusive and do not appear here. The list shows a part of the results.
Kindly provide the number alone.

**Q:** Answer with the recorded normalized growth for the compound listed here: C#C[C@]1(O)CCC2C3CCC4=C(CCC(=O)C4)C3CC[C@@]21C (stereo partly specified)
**A:** 0.99

**Q:** Output normalized growth of CCOP(=S)(OCC)Oc1cc(C)nc(C(C)C)n1
**A:** 0.998

**Q:** Answer with reported normalized growth of Cc1ccnc(NS(=O)(=O)c2ccc(N)cc2)n1
**A:** 1.02

**Q:** Tell us which normalized growth value is on record for N[C@H](C(=O)O)[C@@H]1CC(Cl)=NO1
**A:** 0.0999

**Q:** Return normalized growth for the following compound: C#C[C@]1(O)CCC2C3CCC4=CC(=O)CC[C@@H]4C3CC[C@@]21CC (stereo partly specified)
**A:** 0.98

**Q:** Provide measured normalized growth value, entry: CCCCCCCCCCCC[C@H](C(=O)O)[C@@H](C)C(=O)O
**A:** 1.01

**Q:** Given CCOC(=O)OC(C)OC(=O)C1N2C(=O)C(NC(=O)[C@H](N)c3ccccc3)C2SC1(C)C (stereo partly specified) , respond with its normalized growth.
**A:** 0.995

**Q:** Output normalized growth of O=C(COc1ccc(Cl)cc1)N1CCN(Cc2ccc3c(c2)OCO3)CC1
**A:** 0.9

**Q:** Respond only with normalized growth recorded for Fc1ccc(C(c2ccccc2)(c2ccccc2F)n2ccnc2)cc1 (stereo unspecified)
**A:** 0.0726

**Q:** Please report the measured normalized growth for Cc1cc(O)cc(O)c1C(=O)O
**A:** 1

**Q:** For the compound CCCOc1ccccc1-c1nc2n[nH]nc2c(=O)[nH]1 , give its measured normalized growth value.
**A:** 1.02

**Q:** Give recorded normalized growth. NCCC(=O)N[C@@H](Cc1cnc[nH]1)C(=O)O
**A:** 0.984

**Q:** Answer with reported normalized growth of Clc1ccccc1C(c1ccccc1)(c1ccccc1)n1ccnc1
**A:** 0.0679

**Q:** Determine from records and report normalized growth for CC1(C)CC[C@]2(C)CC[C@]3(C)C(=CCC4[C@@]5(C)CC[C@H](O)C(C)(C)C5CC[C@]43C)C2C1 (stereo partly specified)
**A:** 1

**Q:** Find the measured normalized growth of COC(=O)C[C@H]1C(C)(C)C(=O)[C@@H]2CC3C4=CC(=O)O[C@@H](c5ccoc5)[C@]4(C)CCC3[C@@]1(C)C2=O (stereo partly specified) and report it.
**A:** 0.978

**Q:** Consider the compound N=C(N)c1ccc(OCCCCCOc2ccc(C(=N)N)cc2)cc1 . State its measured normalized growth.
**A:** 0.811

**Q:** Supply measured normalized growth of COc1ccc2c(c1)c(CC(=O)O)c(C)n2C(=O)c1ccc(Cl)cc1 in your reply.
**A:** 0.986

**Q:** Retrieve normalized growth measured for CC(C)=CCCC1(C)C=Cc2c(O)c3c(c(CC=C(C)C)c2O1)OC12C(CC4CC1C(C)(C)OC2(C/C=C(/C)C(=O)O)C4O)C3=O (stereo unspecified) and print it.
**A:** 0.942

**Q:** Look up and state reported normalized growth for CC1=CCC2C3(C)C1=CC(=O)OC3CC1C(C)(C)CC(O)C(O)C12C (stereo unspecified)
**A:** 0.999

**Q:** Return value of normalized growth for input COC(=O)Nc1nc2ccc(C(=O)c3ccccc3)cc2[nH]1 , no commentary.
**A:** 0.742

**Q:** Report normalized growth, nothing else, for this compound: CC(=O)Nc1ccc(OCC(O)CNC(C)C)cc1 (stereo unspecified)
**A:** 1

**Q:** Identify measured normalized growth corresponding to CC(=O)OC1CC[C@@]2(C)C(CC[C@]3(C)C2CCC2C4CC(C)(C)CCC4(C(=O)O)CC[C@]23C)C1(C)C (stereo partly specified)
**A:** 1.01

**Q:** Provide only the value of recorded normalized growth for Cc1ccc(-c2cc(C(F)(F)F)nn2-c2ccc(S(N)(=O)=O)cc2)cc1
**A:** 1

**Q:** Answer with the recorded normalized growth of C/C=C(/C)C(=O)O[C@H]1CC[C@@]2(C)[C@@H]3CC[C@H]4[C@]5(O)C[C@H](O)[C@@]6(O)[C@@H](CN7C[C@@H](C)CC[C@H]7[C@@]6(C)O)[C@]5(O)C[C@@]42O[C@]13O only.
**A:** 0.995

**Q:** Provide measured normalized growth value, entry: CCC(C)C(NC)C(=O)O (stereo unspecified)
**A:** 0.988

**Q:** Give a short answer stating reported normalized growth for O=C(O)/C=C1\CCCc2ccccc2C1O (stereo unspecified) .
**A:** 0.986

**Q:** Please indicate normalized growth recorded for CCC(C)C(=O)O[C@H]1[C@H](O)C2C(CN3CC(C)CCC3[C@@]2(C)O)C2C[C@]34O[C@]5(O)C(OC(=O)C(C)(O)CC)CC[C@@]3(C)C5C(OC(C)=O)[C@@H](OC(C)=O)C4[C@@]21O (stereo partly specified)
**A:** 0.994

**Q:** Look up and state reported normalized growth for Cc1cc(O)cc(=O)o1
**A:** 0.977

**Q:** Answer with reported normalized growth of Cc1cc(O)ccc1Cl
**A:** 1

**Q:** Input COC(=O)Nc1nc2ccc(Sc3ccccc3)cc2[nH]1 , output reported normalized growth.
**A:** 0.993

**Q:** Provide one value: measured normalized growth of C/C=C(/C)C(=O)OC1CCC2(C)C3CCC4C5(O)CC(O)C6(O)C(CN7CC(C)CCC7C6(C)O)C5(O)CC42OC13O (stereo unspecified)
**A:** 0.83

**Q:** Output normalized growth of C#C[C@]1(O)CCC2C3CCC4=CC(=O)CC[C@@H]4C3CC[C@@]21C (stereo partly specified)
**A:** 0.902

**Q:** Identify measured normalized growth corresponding to CC(C)=CCCC1(C)C=Cc2c(O)c3c(c(CC=C(C)C)c2O1)OC12C(=CC4CC1C(C)(C)OC2(C/C=C(/C)C(=O)O)C4O)C3=O (stereo unspecified)
**A:** 0.72

**Q:** Complete the entry with normalized growth for C[C@@H]1CC[C@H]2[C@@H](C)C(=O)O[C@@H]3O[C@@]4(C)CC[C@@H]1[C@]32OO4
**A:** 0.754

**Q:** Tell me normalized growth reported for CNCc1ccccc1
**A:** 1.01

**Q:** Please list normalized growth recorded for the compound CC(=O)O[C@H]1CC[C@@]2(C)C(CC[C@]3(C)C2CC=C2C4CC(C)(C)CC[C@]4(C)CC[C@]23C)C1(C)C (stereo partly specified)
**A:** 1.02

**Q:** Assign normalized growth to the following record: O=c1cc(CO)occ1O
**A:** 1.03

**Q:** Provide one value: measured normalized growth of C[C@@H]1OC(O[C@H]2C(O[C@H]3CC[C@@]4(C)C(CC[C@]5(C)C4CC=C4C6CC(C)(C)CC[C@]6(C(=O)O)CC[C@]45C)[C@]3(C)CO)OC[C@H](O)[C@@H]2O)[C@H](O)[C@H](O)[C@H]1O (stereo partly specified)
**A:** 0.0651

**Q:** Answer with the recorded normalized growth for the compound listed here: N#CC(O[C@@H]1O[C@H](CO[C@@H]2O[C@H](CO)[C@@H](O)[C@H](O)[C@H]2O)[C@@H](O)[C@H](O)[C@H]1O)c1ccccc1 (stereo partly specified)
**A:** 0.991

**Q:** # return recorded normalized growth for entry O=C1C(O)=C(O)C(=O)C(O)=C1O
**A:** 1.02

**Q:** State, in one line, measured normalized growth of Cc1ccc(S(=O)(=O)NC(=O)NN2CC3CCCC3C2)cc1 (stereo unspecified)
**A:** 1.02
